B1: Azoarcus group I ribozyme (parent)
chain: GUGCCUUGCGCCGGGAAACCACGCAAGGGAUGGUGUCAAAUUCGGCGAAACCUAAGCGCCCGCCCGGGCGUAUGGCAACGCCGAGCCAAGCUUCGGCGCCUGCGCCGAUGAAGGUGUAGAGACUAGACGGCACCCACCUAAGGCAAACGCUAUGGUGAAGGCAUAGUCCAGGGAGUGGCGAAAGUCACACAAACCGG

Variants of: B1
experiment.notes: reverse-splicing fitness (ratio to wild type); higher = more active; in vitro selection; Mg2+ level not given
quantity: reverse-splicing fitness

>>> print(df.to_string())
                           mutant_code  assay_value
 0  C82G A120U A145C C150U C169U U176A      0.00246
 1        C82A A111C A145G C150U U176G       0.0141
 2  C82G A111C A120G A145U C150A U176A       0.0121
 3  C82U A111C A120U C150A C169U U176C       0.0037
 4             A145G C150A C169G U176A       0.0321
 5             A145G C150A C169A U176G      0.00608
 6        C82A A111U A145C C169A U176C      0.00816
 7        C82A A120U A145G C150G U176A      0.00758
 8       A111C A120C A145U C169A U176A       0.0135
 9             A120C A145C C150A U176C        0.102
10        C82A A111U A145G C150G C169U       0.0101
